system_under_test: human DLL3 protein expressed on CHO-K1 recombinant cells (human DLL3 extracellular segment fused to EpCAM transmembrane and intracellular regions) (human) (UniProt Q9NYJ7)
Sequence (Q9NYJ7 other isoform, or with tags, fused parts or gaps limits assumed): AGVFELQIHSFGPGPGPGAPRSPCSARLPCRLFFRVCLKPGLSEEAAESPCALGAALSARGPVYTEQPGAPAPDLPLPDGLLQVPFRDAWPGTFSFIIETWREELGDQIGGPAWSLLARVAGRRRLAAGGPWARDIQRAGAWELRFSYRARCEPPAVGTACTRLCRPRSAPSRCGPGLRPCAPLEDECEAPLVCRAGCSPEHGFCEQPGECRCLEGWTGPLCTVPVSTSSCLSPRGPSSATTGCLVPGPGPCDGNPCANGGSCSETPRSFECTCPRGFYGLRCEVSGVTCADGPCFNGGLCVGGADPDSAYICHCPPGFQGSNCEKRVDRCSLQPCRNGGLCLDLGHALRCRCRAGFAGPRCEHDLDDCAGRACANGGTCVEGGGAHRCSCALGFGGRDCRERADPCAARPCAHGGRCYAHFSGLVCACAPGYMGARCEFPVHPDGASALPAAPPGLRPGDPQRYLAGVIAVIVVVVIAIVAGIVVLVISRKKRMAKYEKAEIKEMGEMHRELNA
method: FACS, CHO-K1 hDLL3 cells, 20 nM antibody

{"binder": "Hab008L3H2a-hFc (scFv, part only; not given: VL-VH linker and human IgG1 Fc, V domains shown, not shown: another chain or arm of the molecule; a dimerising Fc or GST; small tags and cut ends) VL: DIVMTQSPDSLAVSLGERATINCKASQNVGTAVAWYQQKPGQSPKLLIFSASIRYTGVPDRFSGSGSGTDFTLTISSLQAEDVAVYYCQQYSSSPYTFGGGTKVEIK VH: EVQLVQSGAEVKKPGASVKVSCKASGYTFTDYYMNWVRQAPGQRLEWMGIINPYNSGTSYNQKFRGRVTLTVDKSASTAYMELSSLRSEDTAVYYCSRYDYDYDVEGAMDYWGQGTTVTVSS", "MFI (MFI)": 8200}
{"binder": "Hab015VL4VH1b-hFc (scFv, part only; not given: VL-VH linker and human IgG1 Fc, V domains shown, not shown: another chain or arm of the molecule; a dimerising Fc or GST; small tags and cut ends) VL: NIVLTQSPATLSLSPGERATLSCKASENVGTYVSWFQQKPGQSPRLLIYGASNRYTGIPARFSGSGSGTDFTLTISSLEPEDFAVYYCGQFYSFPSTFGGGTKVEIK VH: EVQLVESGGGLVKPGGSLRLSCAASGITFSNFWMNWVRQAPGKGLEWVGQIRLKSEDYATHYAESVKGRFTISREDSKNTVYLQMNSLKTEDTAVYYCTTGYYFDYWGQGTTVTVSS", "MFI (MFI)": 11300}
{"binder": "Hab014VL2VH1-hFc (scFv, part only; not given: scFv linker and human IgG1 Fc, V domains shown, not shown: another chain or arm of the molecule; a dimerising Fc or GST; small tags and cut ends) VL: DIQMTQSPSSLSASVGDRVTITCKASEDIYNRLAWYQQKPGKVPKLLISGATSLETGVPSRFSGSGSGKDFTLTISSLQPEDVATYYCQQYWSLPWTFGGGTKVEIK VH: EVQLVQSGAEVKKPGASVKVSCKASGYTFTDYYMNWVRQAPGQRLEWMGDINPNHGDTGYNQKFTGRVTITVDKSASTAYMELSSLRSEDTAVYYCARNFFYYGTTYGWYFDVWGQGTTVTVSS", "MFI (MFI)": 16100}
{"binder": "Hab006VL1VH4-hFc (scFv, part only; not given: VL-VH linker and human IgG1 Fc, V domains shown, not shown: another chain or arm of the molecule; a dimerising Fc or GST; small tags and cut ends) VL: DIQMTQSPSSLSASVGDRVTITCRATKSISKYLAWYQQKPGKAPKLLIFSGSTLQSGVPSRFSGSGSGTDFTLTISSLQPEDFATYYCQQHHEYPYTFGGGTKVEIK VH: EVQLVQSGAEVKKPGASVKVSCKASGYTFTSYWMHWVRQAPGQRLEWMGVIDPSDSLANYNQEFKGRVTLTVDTSSSTAYMELSSLRSEDTAVYYCARDSTVVAPMDYWGQGTTVTVSS", "MFI (MFI)": 13600}
{"binder": "Hab014VL3VH1-hFc (scFv, part only; not given: VL-VH linker and human IgG1 Fc, V domains shown, not shown: another chain or arm of the molecule; a dimerising Fc or GST; small tags and cut ends) VL: DIVMTQSPDSLAVSLGERATINCKASEDIYNRLAWYQQKPGQTPKLLISGATSLETGVPDRFSGSGSGKDFTLTISSLQAEDVAVYYCQQYWSLPWTFGGGTKVEIK VH: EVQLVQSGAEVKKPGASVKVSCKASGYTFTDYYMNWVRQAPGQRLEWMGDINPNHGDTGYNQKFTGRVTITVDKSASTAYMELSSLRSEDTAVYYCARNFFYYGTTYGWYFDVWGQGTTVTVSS", "MFI (MFI)": 15700}
{"binder": "Hab015VL5VH1b-hFc (scFv, part only; not given: VL-VH linker and human IgG1 Fc, V domains shown, not shown: another chain or arm of the molecule; a dimerising Fc or GST; small tags and cut ends) VL: NIQMTQSPSSLSASVGDRVTITCKASENVGTYVSWYQQKPGKSPKLLIYGASNRYTGVPSRFSGSGSGTDFTLTISSLQPEDFATYYCGQFYSFPSTFGGGTKVEIK VH: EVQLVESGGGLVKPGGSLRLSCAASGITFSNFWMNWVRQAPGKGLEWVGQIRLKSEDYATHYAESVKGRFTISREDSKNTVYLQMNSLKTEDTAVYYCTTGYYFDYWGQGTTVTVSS", "MFI (MFI)": 11500}
{"binder": "Hab014VL1VH2-hFc (scFv, part only; not given: VL-VH linker and human IgG1 Fc, V domains shown, not shown: another chain or arm of the molecule; a dimerising Fc or GST; small tags and cut ends) VL: DIQMTQSPSSLSASVGDRVTITCKASEDIYNRLAWYQQKPGKVPKLLISGATSLETGVPSRFSGSGSGTDFTLTISSLQPEDVATYYCQQYWSLPWTFGGGTKVEIK VH: EVQLVQSGAEVKKPGASVKVSCKASGYTFTDYYMNWVRQAPGQRLEWMGDINPNHGDTGYNQKFTGRVTLTVDKSASTAYMELSSLRSEDTAVYYCARNFFYYGTTYGWYFDVWGQGTTVTVSS", "MFI (MFI)": 15100}
{"binder": "Hab006VL4VH1-hFc (scFv, part only; not given: scFv linker and human IgG1 Fc, V domains shown, not shown: another chain or arm of the molecule; a dimerising Fc or GST; small tags and cut ends) VL: DIVMTQSPDSLAVSLGERATINCRATKSISKYLAWYQQKPGQTNKLLIFSGSTLQSGVPDRFSGSGSGTDFTLTISSLQAEDVAVYYCQQHHEYPYTFGGGTKVEIK VH: EVQLVQSGAEVKKPGASVKVSCKASGYTFTSYWMHWVRQAPGQRLEWMGVIDPSDSLANYNQEFKGRVTITVDTSASTAYMELSSLRSEDTAVYYCARDSTVVAPMDYWGQGTTVTVSS", "MFI (MFI)": 14500}
{"binder": "Hab015VL4VH1a-hFc (scFv, part only; not given: scFv linker and human IgG1 Fc, V domains shown, not shown: another chain or arm of the molecule; a dimerising Fc or GST; small tags and cut ends) VL: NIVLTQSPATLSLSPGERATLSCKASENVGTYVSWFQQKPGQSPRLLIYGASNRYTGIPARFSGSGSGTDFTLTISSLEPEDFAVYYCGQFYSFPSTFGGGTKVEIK VH: EVQLVESGGGLVKPGGSLRLSCAASGITFSNFWMNWVRQAPGKGLEWVGQIRLKSDDYATHYAESVKGRFTISREDSKNTVYLQMNSLKTEDTAVYYCTTGYYFDYWGQGTTVTVSS", "MFI (MFI)": 10600}
{"binder": "Hab006VL4VH2-hFc (scFv, part only; not given: scFv linker and human IgG1 Fc, V domains shown, not shown: another chain or arm of the molecule; a dimerising Fc or GST; small tags and cut ends) VL: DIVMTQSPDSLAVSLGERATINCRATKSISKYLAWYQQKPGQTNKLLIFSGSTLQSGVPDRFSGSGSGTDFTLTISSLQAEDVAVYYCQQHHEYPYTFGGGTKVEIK VH: EVQLVQSGAEVKKPGASVKVSCKASGYTFTSYWMHWVRQAPGQRLEWMGVIDPSDSLANYNQEFKGRVTLTVDTSASTAYMELSSLRSEDTAVYYCARDSTVVAPMDYWGQGTTVTVSS", "MFI (MFI)": 14500}
